# Assay method text: Cytotoxicity against human NCI60 cells
# Assay type: functional
# Met = GI50 below 9 µM (exclusive); Not met = GI50 at/above 9 µM

>  <Smiles representation>
C[C@H](CCC(N)=O)[C@H]1CC[C@H]2[C@@H]3[C@H](O)C[C@@H]4CC5(CC[C@]4(C)[C@H]3C[C@H](O)[C@]12C)OOC(C)(C)OO5

>  <Label value>
Met

$$$$
>  <Smiles representation>
CC(=O)O[C@H]1C[C@H]2[C@@H]([C@H](OC(C)=O)C[C@@H]3CC4(CC[C@@]32C)OOC(C)(C)OO4)[C@@H]2CC[C@H]([C@H](C)CCC(=O)NCCN(C)C)[C@@]12C

>  <Label value>
Met

$$$$
>  <Smiles representation>
CC(=O)O[C@H]1C[C@H]2[C@@H]([C@H](OC(C)=O)C[C@@H]3CC4(CC[C@@]32C)OOC(C)(C)OO4)[C@@H]2CC[C@H]([C@H](C)CCC(=O)O)[C@@]12C

>  <Label value>
Not met

$$$$
>  <Smiles representation>
CC(=O)O[C@H]1C[C@H]2[C@@H]([C@H](OC(C)=O)C[C@@H]3CC4(CC[C@@]32C)OOC(C)(C)OO4)[C@@H]2CC[C@H]([C@H](C)CCC(=O)N(C)C)[C@@]12C

>  <Label value>
Not met

$$$$
>  <Smiles representation>
CC(=O)O[C@H]1C[C@H]2[C@@H]([C@H](OC(C)=O)C[C@@H]3CC4(CC[C@@]32C)OOC(C)(C)OO4)[C@@H]2CC[C@H]([C@H](C)CCC(N)=O)[C@@]12C

>  <Label value>
Met

$$$$
>  <Smiles representation>
CNC(=O)CC[C@@H](C)[C@H]1CC[C@H]2[C@@H]3[C@H](OC(C)=O)C[C@@H]4CC5(CC[C@]4(C)[C@H]3C[C@H](OC(C)=O)[C@]12C)OOC(C)(C)OO5

>  <Label value>
Met

$$$$
>  <Smiles representation>
COC(=O)CNC(=O)CC[C@@H](C)[C@H]1CC[C@H]2[C@@H]3[C@H](OC(C)=O)C[C@@H]4CC5(CC[C@]4(C)[C@H]3C[C@H](OC(C)=O)[C@]12C)OOC(C)(C)OO5

>  <Label value>
Met

$$$$

====

Listing: IC90 of selected compounds
# Tested on: Plasmodium falciparum
# Assay method text: microbe, parasite or virus in culture
# Assay setup: D6
# Description: Antimalarial activity against chloroquine and pyrimethamine-sensitive Plasmodium falciparum D6

>  <Compound>
COC(=O)CC[C@@H](C)[C@H]1CC[C@H]2[C@@H]3[C@H](OC(C)=O)C[C@@H]4CC5(CC[C@]4(C)[C@H]3C[C@H](OC(C)=O)[C@]12C)OOC(C)(C)OO5

>  <IC90>
26.7 nM

$$$$
>  <Compound>
CC(=O)O[C@H]1C[C@H]2[C@@H]([C@H](OC(C)=O)C[C@@H]3CC4(CC[C@@]32C)OOC(C)(C)OO4)[C@@H]2CC[C@H]([C@H](C)CCC(=O)NN)[C@@]12C

>  <IC90>
46.3 nM

$$$$
>  <Compound>
CC(=O)O[C@H]1C[C@H]2[C@@H]([C@H](OC(C)=O)C[C@@H]3CC4(CC[C@@]32C)OOC(C)(C)OO4)[C@@H]2CC[C@H]([C@H](C)CCC(=O)O)[C@@]12C

>  <IC90>
96.3 nM

$$$$
>  <Compound>
CC(=O)O[C@H]1C[C@H]2[C@@H]([C@H](OC(C)=O)C[C@@H]3CC4(CC[C@@]32C)OOC(C)(C)OO4)[C@@H]2CC[C@H]([C@H](C)CCC(=O)NCCN(C)C)[C@@]12C

>  <IC90>
26.2 nM

$$$$
>  <Compound>
CCN(CC)CCCC(C)Nc1ccnc2cc(Cl)ccc12 (stereo not given)

>  <IC90>
17.6 nM

$$$$
